# Test system: human A549 cells
# assayMethodText: Inhibition test of PGE2 production using human A549 cells
# Format: cell-based
# measurementContext: IL-1β stimulated A549 cells, 24 h, PGE2 by HTRF, read-out: A549 cell inhibition of PGE2 production IC50
Where a name gives a salt, the structure may show the parent alone.
log10 of IC50 values for the molecules below.
Log10 applied to IC50; unit prior to transform: nM.

CC(=O)NCc1ccc(Cl)c(C(=O)Nc2cccc3c2cnn3-c2ccc(C(F)(F)F)cc2)c1    1.72
CC(C)n1ncc2c(NC(=O)c3cc(CNC(=O)C(C)(C)C)ccc3C(F)(F)F)cccc21    1.31
CCn1ncc2c(NC(=O)c3cc(CNC(=O)C(C)(C)C)ccc3C(F)(F)F)cccc21    1.17
CN(C)CCC(=O)NCc1ccc(Cl)c(C(=O)Nc2cccc3c2cnn3-c2ccc(C(F)(F)F)cc2)c1 [Example 35, hydrochloride]    2.97
O=C(Cc1ccccc1)NCc1ccc(Cl)c(C(=O)Nc2cccc3c2cnn3-c2ccc(C(F)(F)F)cc2)c1    2.18
CC(C)(C)CC(=O)NCc1ccc(Cl)c(C(=O)Nc2cccc3c2cnn3-c2ccc(C(F)(F)F)nc2)c1    0.83

Please find the next molecule below.
# log10 of IC50 lookup, item O=C(Nc1cccc2c1cnn2-c1ccc(C(F)(F)F)nc1)c1cc(CNS(=O)(=O)C2CC2)ccc1Cl
0.64
